The reported numbers originate from ChEMBL document CHEMBL5678809.

Molecular target: Death-associated protein kinase 1 (Homo sapiens, UniProt P53355)
Sequence (P53355 whole entry): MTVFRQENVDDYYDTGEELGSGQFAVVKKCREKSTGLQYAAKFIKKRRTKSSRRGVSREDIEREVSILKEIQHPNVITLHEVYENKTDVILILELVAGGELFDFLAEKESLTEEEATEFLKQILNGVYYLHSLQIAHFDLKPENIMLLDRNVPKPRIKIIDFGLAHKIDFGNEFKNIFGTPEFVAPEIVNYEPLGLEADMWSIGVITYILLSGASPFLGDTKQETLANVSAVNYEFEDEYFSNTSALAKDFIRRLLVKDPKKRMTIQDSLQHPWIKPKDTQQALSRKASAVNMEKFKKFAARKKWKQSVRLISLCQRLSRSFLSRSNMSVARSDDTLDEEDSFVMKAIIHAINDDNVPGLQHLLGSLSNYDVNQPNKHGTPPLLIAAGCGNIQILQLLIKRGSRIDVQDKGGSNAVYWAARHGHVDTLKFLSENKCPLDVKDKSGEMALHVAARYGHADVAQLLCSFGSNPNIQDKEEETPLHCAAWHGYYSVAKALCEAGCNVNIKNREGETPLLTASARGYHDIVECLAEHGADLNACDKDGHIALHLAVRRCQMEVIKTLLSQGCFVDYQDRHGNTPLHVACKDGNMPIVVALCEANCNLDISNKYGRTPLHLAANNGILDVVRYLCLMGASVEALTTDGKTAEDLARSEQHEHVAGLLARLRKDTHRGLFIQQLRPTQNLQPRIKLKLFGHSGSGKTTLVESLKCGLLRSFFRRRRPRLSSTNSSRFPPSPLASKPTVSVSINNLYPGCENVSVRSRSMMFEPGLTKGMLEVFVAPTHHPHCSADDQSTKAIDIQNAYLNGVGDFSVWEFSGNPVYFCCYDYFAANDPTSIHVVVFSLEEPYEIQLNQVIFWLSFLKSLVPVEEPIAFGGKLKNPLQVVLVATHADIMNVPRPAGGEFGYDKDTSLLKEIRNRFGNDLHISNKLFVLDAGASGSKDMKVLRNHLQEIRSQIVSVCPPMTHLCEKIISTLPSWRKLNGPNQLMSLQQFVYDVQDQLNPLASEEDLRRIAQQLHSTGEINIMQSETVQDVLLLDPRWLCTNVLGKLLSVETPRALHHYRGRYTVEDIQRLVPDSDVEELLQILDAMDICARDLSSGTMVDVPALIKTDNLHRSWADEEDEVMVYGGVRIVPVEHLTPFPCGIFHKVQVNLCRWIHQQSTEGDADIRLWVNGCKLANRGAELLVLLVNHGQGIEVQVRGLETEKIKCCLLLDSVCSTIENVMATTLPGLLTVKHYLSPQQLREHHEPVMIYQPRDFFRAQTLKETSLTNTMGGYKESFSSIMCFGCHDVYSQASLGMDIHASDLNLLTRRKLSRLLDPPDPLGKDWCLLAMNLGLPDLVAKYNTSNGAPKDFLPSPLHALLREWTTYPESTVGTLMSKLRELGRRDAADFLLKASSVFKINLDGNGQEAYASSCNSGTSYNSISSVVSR
Assay: Inhibition of DAPK1 (unknown origin)

{"columns": ["Structure As Smiles", "IC50"],
 "data": [
  ["O=C(Nc1nc2cccc(-c3ccc(CN4CCS(=O)(=O)CC4)cc3)n2n1)C1CC1", "> 10 µM"]
]}

###

Assay: Clearance in Sprague-Dawley rat at 1 mg/kg, iv measured upto 8 hrs by LC-MS analysis
Type: ADME, organism-based
Details: in vivo
Value Type: clearance

{"columns": ["Molecule", "Value Type", "Observed Measurement"],
 "data": [
  ["O=C(Nc1nc2cccc(-c3ccc(CN4CCS(=O)(=O)CC4)cc3)n2n1)C1CC1 [FILGOTINIB]", "clearance", "23.3 mL/min/kg"]
]}

###

Assay: Tmax in Sprague-Dawley rat at 5 mg/kg, po measured upto 24 hrs by LC-MS analysis
Assay type: ADME, organism-based
Settings: in vivo
Value Type: Tmax (h)

{"columns": ["Compound", "Unit Of Measurement", "Observed Measurement"],
 "data": [
  ["O=C(Nc1nc2cccc(-c3ccc(CN4CCS(=O)(=O)CC4)cc3)n2n1)C1CC1 [FILGOTINIB]", "h", 2.2]
]}

###

Assay: Half life in CD-1 mouse at 5 mg/kg, po measured upto 24 hrs by LC-MS analysis
Assay type: ADME, organism-based
Settings: in vivo
Value Type: half-life (h)

{"columns": ["Compound", "Observed Measurement"],
 "data": [
  ["O=C(Nc1nc2cccc(-c3ccc(CN4CCS(=O)(=O)CC4)cc3)n2n1)C1CC1 [FILGOTINIB]", 1.7]
]}

###

Molecular target: Tyrosine-protein kinase Mer (Homo sapiens)
Sequence (Q12866 whole entry): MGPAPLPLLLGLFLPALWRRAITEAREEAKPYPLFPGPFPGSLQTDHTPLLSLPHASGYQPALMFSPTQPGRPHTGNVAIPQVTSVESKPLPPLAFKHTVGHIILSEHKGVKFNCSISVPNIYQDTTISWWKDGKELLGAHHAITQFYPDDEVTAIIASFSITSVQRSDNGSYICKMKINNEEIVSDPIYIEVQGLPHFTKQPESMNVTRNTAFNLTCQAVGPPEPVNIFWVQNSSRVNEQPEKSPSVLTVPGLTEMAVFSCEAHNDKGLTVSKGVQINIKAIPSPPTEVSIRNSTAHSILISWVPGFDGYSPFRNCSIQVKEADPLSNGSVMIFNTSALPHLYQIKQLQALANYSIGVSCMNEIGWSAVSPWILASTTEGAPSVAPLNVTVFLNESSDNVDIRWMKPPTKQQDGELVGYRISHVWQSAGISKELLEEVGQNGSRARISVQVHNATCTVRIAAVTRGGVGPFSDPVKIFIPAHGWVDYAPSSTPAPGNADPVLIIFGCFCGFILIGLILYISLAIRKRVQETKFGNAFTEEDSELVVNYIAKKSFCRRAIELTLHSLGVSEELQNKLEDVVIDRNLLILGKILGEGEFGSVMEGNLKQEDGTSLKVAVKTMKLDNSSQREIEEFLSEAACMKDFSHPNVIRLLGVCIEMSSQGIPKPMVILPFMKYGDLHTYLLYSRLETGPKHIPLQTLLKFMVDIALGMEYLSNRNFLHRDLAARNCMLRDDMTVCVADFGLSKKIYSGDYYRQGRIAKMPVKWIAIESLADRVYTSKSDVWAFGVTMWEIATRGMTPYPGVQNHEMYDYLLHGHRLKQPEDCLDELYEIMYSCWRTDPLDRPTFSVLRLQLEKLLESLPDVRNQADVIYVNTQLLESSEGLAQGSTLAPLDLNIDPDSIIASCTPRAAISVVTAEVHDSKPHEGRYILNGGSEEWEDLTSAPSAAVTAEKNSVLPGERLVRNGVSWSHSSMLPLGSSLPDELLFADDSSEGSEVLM

{"columns": ["Structure As Smiles", "IC50 [nM]"],
 "data": [
  ["O=C(Nc1nc2cccc(-c3ccc(CN4CCS(=O)(=O)CC4)cc3)n2n1)C1CC1", 1270]
]}

###

Target: Tyrosine-protein kinase SYK (Homo sapiens, UniProt P43405)

{"columns": ["Structure As Smiles", "IC50"],
 "data": [
  ["O=C(Nc1nc2cccc(-c3ccc(CN4CCS(=O)(=O)CC4)cc3)n2n1)C1CC1", "> 10 µM"]
]}

###

Test: Oral bioavailability in CD-1 mouse at 5 mg/kg measured upto 24 hrs by LC-MS analysis
Type: ADME, organism-based
Conditions: in vivo

{"columns": ["Structure As Smiles", "bioavailability"],
 "data": [
  ["O=C(Nc1nc2cccc(-c3ccc(CN4CCS(=O)(=O)CC4)cc3)n2n1)C1CC1", "~100%"]
]}

###

Molecular target: UniProtKB P06239
Sequence (P06239 whole entry): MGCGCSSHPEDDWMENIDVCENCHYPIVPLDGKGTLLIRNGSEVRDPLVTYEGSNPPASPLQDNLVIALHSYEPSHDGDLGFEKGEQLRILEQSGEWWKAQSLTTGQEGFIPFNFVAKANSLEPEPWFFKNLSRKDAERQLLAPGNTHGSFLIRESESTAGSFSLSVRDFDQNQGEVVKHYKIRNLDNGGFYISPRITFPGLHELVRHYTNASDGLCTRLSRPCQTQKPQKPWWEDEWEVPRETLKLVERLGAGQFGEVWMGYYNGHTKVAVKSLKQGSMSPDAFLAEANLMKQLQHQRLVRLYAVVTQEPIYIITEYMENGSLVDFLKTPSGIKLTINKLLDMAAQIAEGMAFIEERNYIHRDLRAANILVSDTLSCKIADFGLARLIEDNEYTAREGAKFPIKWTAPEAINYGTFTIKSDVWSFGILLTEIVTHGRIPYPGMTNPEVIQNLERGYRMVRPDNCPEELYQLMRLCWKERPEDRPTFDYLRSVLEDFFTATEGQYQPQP
pIC50: −log10 of the molar value.

{"columns": ["Structure As Smiles", "pIC50"],
 "data": [
  ["O=C(Nc1nc2cccc(-c3ccc(CN4CCS(=O)(=O)CC4)cc3)n2n1)C1CC1", "< 5.00"]
]}

###

Test: Cmax in Sprague-Dawley rat at 5 mg/kg, po measured upto 24 hrs by LC-MS analysis
Assay type: ADME, organism-based
Details: in vivo
Value Type: Cmax (ng/mL)

{"columns": ["Structure As Smiles", "Value Type", "Unit Of Measurement", "Observed Measurement"],
 "data": [
  ["O=C(Nc1nc2cccc(-c3ccc(CN4CCS(=O)(=O)CC4)cc3)n2n1)C1CC1", "Cmax", "ng/mL", 310]
]}

###

Test: Half life in Sprague-Dawley rat at 1 mg/kg, iv measured upto 8 hrs by LC-MS analysis
Type: ADME, organism-based
Settings: in vivo

{"columns": ["Structure As Smiles", "Unit Of Measurement", "half-life"],
 "data": [
  ["O=C(Nc1nc2cccc(-c3ccc(CN4CCS(=O)(=O)CC4)cc3)n2n1)C1CC1", "min", 96]
]}

###

Experiment: AUC (0 to 24 hrs) in CD-1 mouse at 1 mg/kg, iv measured upto 8 hrs by LC-MS analysis
Assay type: ADME, organism-based
Details: in vivo

{"columns": ["Compound", "AUC / ng·h/mL"],
 "data": [
  ["O=C(Nc1nc2cccc(-c3ccc(CN4CCS(=O)(=O)CC4)cc3)n2n1)C1CC1 [FILGOTINIB]", 347]
]}

###

Target: Mitogen-activated protein kinase kinase kinase kinase 2 (Homo sapiens, UniProt Q12851)
Sequence (Q12851 whole entry): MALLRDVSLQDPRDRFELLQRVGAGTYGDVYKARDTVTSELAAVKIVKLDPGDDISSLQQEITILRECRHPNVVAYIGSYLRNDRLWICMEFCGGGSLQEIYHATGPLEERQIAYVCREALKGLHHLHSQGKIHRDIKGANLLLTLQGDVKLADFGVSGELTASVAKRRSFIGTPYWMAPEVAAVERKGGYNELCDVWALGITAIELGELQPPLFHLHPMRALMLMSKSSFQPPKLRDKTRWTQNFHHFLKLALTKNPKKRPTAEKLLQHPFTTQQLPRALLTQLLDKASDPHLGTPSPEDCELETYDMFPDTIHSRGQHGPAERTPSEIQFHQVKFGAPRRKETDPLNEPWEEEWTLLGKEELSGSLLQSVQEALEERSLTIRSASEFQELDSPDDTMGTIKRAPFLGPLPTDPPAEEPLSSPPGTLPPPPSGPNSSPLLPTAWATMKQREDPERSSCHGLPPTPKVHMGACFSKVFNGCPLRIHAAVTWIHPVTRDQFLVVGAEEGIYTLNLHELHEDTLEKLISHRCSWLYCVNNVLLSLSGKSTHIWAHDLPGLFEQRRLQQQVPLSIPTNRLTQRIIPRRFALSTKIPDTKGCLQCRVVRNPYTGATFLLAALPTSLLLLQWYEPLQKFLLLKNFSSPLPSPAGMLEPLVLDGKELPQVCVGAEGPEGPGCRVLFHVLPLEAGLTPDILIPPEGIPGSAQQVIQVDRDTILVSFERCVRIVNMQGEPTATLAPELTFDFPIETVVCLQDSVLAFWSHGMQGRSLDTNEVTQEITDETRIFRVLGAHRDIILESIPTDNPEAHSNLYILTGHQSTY
Test: Inhibition of GCK (unknown origin)
Value Type: IC50

{"columns": ["Compound", "Value Type", "Observed Measurement"],
 "data": [
  ["O=C(Nc1nc2cccc(-c3ccc(CN4CCS(=O)(=O)CC4)cc3)n2n1)C1CC1 [FILGOTINIB]", "IC50", "> 10 µM"]
]}

###

Experiment: Oral bioavailability in Sprague-Dawley rat at 5 mg/kg measured upto 24 hrs by LC-MS analysis
Format: ADME, organism-based
Conditions: in vivo

{"columns": ["Structure As Smiles", "bioavailability / %"],
 "data": [
  ["O=C(Nc1nc2cccc(-c3ccc(CN4CCS(=O)(=O)CC4)cc3)n2n1)C1CC1", 45]
]}

###

Test: Half life in Dark Agouti rat at 3 to 30 mg/kg, po
Format: ADME, organism-based
Details: in vivo, dose 3-30 mg/kg

{"columns": ["Structure As Smiles", "half-life"],
 "data": [
  ["O=C(Nc1nc2cccc(-c3ccc(CN4CCS(=O)(=O)CC4)cc3)n2n1)C1CC1", "~4 h"]
]}

###

Assay: Tmax in Dark Agouti rat at 3 to 30 mg/kg, po
Format: ADME, organism-based
Details: in vivo, dose 3-30 mg/kg

{"columns": ["Structure As Smiles", "Tmax"],
 "data": [
  ["O=C(Nc1nc2cccc(-c3ccc(CN4CCS(=O)(=O)CC4)cc3)n2n1)C1CC1", "~1 h"]
]}

###

Assay: AUC (0 to 24 hrs) in Sprague-Dawley rat at 5 mg/kg, po measured upto 24 hrs by LC-MS analysis
Assay type: ADME, organism-based
Settings: in vivo

{"columns": ["Structure As Smiles", "AUC"],
 "data": [
  ["O=C(Nc1nc2cccc(-c3ccc(CN4CCS(=O)(=O)CC4)cc3)n2n1)C1CC1", "1680 ng·h/mL"]
]}

###

Target: Serine/threonine-protein kinase ICK (Homo sapiens)
Sequence (Q9UPZ9 whole entry): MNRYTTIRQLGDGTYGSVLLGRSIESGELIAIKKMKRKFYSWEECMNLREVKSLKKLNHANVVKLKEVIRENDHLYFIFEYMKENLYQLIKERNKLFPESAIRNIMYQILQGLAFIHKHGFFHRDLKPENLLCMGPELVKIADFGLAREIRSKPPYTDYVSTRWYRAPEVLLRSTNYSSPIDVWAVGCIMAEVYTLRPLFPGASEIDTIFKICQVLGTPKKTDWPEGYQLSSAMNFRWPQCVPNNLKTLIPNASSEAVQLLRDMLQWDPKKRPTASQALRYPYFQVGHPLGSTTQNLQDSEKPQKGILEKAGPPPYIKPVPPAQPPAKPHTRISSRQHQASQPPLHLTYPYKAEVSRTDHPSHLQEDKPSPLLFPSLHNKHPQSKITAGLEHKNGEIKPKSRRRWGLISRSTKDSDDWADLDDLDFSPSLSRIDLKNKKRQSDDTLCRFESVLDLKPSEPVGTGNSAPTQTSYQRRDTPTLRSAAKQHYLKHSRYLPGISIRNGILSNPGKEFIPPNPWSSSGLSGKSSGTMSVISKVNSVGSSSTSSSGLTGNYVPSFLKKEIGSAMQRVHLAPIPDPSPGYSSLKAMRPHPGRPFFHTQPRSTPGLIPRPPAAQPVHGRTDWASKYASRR

{"columns": ["Compound", "IC50"],
 "data": [
  ["O=C(Nc1nc2cccc(-c3ccc(CN4CCS(=O)(=O)CC4)cc3)n2n1)C1CC1 [FILGOTINIB]", "> 10 µM"]
]}

###

Target: Serine/threonine-protein kinase PAK 6 (Homo sapiens, UniProt Q9NQU5)
Sequence (Q9NQU5 whole entry): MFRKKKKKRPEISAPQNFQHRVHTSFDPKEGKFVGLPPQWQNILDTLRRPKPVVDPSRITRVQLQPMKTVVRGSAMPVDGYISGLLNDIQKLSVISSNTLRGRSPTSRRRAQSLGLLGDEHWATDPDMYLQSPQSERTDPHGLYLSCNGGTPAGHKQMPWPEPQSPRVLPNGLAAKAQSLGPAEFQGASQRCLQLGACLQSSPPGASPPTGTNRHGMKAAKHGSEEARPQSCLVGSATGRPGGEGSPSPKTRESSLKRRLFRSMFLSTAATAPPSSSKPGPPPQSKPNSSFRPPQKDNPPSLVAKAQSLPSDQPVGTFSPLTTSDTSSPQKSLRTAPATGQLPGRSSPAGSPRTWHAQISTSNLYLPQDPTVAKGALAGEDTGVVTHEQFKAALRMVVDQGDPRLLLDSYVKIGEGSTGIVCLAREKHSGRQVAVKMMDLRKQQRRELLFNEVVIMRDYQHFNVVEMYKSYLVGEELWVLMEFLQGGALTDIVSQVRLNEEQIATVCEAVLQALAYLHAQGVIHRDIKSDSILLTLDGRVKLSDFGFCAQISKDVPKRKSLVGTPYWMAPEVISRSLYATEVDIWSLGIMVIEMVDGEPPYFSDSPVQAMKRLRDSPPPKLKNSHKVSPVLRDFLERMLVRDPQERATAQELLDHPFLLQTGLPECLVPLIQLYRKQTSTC
Value Type: IC50

{"columns": ["Molecule", "Value Type", "Observed Measurement"],
 "data": [
  ["O=C(Nc1nc2cccc(-c3ccc(CN4CCS(=O)(=O)CC4)cc3)n2n1)C1CC1 [FILGOTINIB]", "IC50", "> 10 µM"]
]}
